# measured.on: Aromatase (Homo sapiens, UniProt P11511)
# Sequence (P11511 whole entry): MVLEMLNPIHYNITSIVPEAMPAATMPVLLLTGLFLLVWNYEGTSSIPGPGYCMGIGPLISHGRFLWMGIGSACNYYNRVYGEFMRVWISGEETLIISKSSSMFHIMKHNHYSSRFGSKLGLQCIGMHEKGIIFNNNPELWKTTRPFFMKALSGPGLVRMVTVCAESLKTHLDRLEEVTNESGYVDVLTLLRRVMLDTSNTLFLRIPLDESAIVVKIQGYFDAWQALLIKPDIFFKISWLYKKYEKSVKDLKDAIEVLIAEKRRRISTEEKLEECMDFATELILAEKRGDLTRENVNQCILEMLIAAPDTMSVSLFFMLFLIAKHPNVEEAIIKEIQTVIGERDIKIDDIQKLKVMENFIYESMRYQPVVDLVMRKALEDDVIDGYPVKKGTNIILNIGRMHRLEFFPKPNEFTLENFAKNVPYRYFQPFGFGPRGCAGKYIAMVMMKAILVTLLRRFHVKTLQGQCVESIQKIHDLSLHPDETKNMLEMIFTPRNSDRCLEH
quantity.measured: IC50 (nM)
Please reply with the bare figure in nM and do not write the unit itself.

{"compound": "CC1C2=CC(=O)CCC2(C)C2CCC3(C)C(=O)CCC3C12 (stereo not drawn)", "measured.on": "Aromatase (Homo sapiens, UniProt P11511)", "IC50, nM": 274}
{"compound": "CCCC(=O)Oc1cc(OC(=O)CCC)c2c(C)cc(=O)oc2c1", "measured.on": "Aromatase (Homo sapiens, UniProt P11511)", "IC50, nM": 176000}

Note: attention shifts to another entry.
Notebook: `C[C@]12CCC(=O)C(O)=C1CC[C@@H]1[C@@H]2CC[C@]2(C)C(=O)CC[C@@H]12` , IC50 read as 92

====

# measured.on: Aromatase (Homo sapiens, UniProt P11511)
quantity.measured: Ki (µM)
Please reply with the bare figure in µM and do not write the unit itself.

Assay Aromatase (Homo sapiens, UniProt P11511), sample CC1C2=CC(=O)CCC2(C)C2CCC3(C)C(=O)CCC3C12 (stereo unspecified) , Ki read: 0.266
